Recorded protein stability index values for a group of variants are listed next.
B1: FCHO1 (parent)
chain: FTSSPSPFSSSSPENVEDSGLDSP

- Variants of: B1
- procedure text: protein stability index of a GFP-peptide fusion (GPS, HEK-293T) (PSI 1-6); higher = more stable;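 note: lentivirally expressed fusions sorted by FACS into six bins by GFP to DsRed ratio, PSI derived from sequencing read proportions per bin multiplied by bin number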
- stated conditions: c terminus: a fixed tail appended

| mutation annotation | protein stability index |
| --- | --- |
| P5G | 2.06 |
| F8R | 4.29 |
| P5W | 1.87 |
| P13I | 2.05 |
| P5N | 2.09 |
| E17R | 1.86 |
| S6C | 2.18 |
| S9V | 1.73 |
| S23D | 2.18 |
| S12C | 2.46 |
| S19P | 2.26 |
| G20N | 1.98 |
| L21Y | 2.19 |
| E14C | 1.69 |
| S9K | 1.89 |
| E14T | 1.84 |
| S3H | 2.32 |
| S6H | 2.23 |
| N15Q | 1.81 |
| D18Q | 1.93 |
| G20Q | 1.99 |
| D22I | 2.11 |
| T2N | 3.96 |
| F8E | 5.2 |
| P5Y | 1.9 |
| V16L | 1.7 |
| G20I | 1.97 |
| S11T | 1.67 |
| V16P | 1.6 |
| F1G | 5.46 |
| E14A | 1.96 |
| F8L | 3.74 |
| S23K | 2.17 |
| F1T | 5.38 |
| S11N | 1.55 |
| P7N | 1.96 |
| D18K | 1.91 |
| S10M | 1.94 |
| S9F | 2.34 |
| P5V | 2.17 |
| S19G | 1.64 |
| S9M | 2.02 |
| S12R | 1.56 |
| N15P | 2.95 |
| V16Q | 1.91 |
| S12A | 1.74 |
| S6F | 1.79 |
| S11I | 2.23 |
| S12M | 1.99 |
| S11R | 2.01 |
| S23V | 1.56 |
| T2S | 2.86 |
| S9H | 1.84 |
| P24L | 1.98 |
| P5A | 1.88 |
| S4A | 1.71 |
| V16W | 2.16 |
| P5T | 1.69 |
| T2G | 2.71 |
| S3C | 2.01 |
| P24F | 1.89 |
| S12F | 2.65 |
| P24G | 1.77 |
| S3W | 2.61 |
| T2C | 2.02 |
| P13E | 2.44 |
| E14V | 2.15 |
| T2K | 5.53 |
| S3F | 2.6 |
| S19V | 2 |
| D18L | 2.05 |
| E14L | 2.22 |
| S10E | 2.05 |
| F8P | 4.95 |
| F8C | 3.77 |
| D18T | 2.03 |
| S9P | 3.79 |
| G20H | 2.43 |
| E17V | 1.3 |
| T2F | 4.58 |
| S11M | 1.76 |
| T2H | 2.02 |
| P24R | 2.47 |
| S11W | 2.39 |
| S11K | 1.86 |
| F8D | 5.5 |
| V16S | 2.15 |
| T2W | 3.64 |
| S9E | 2.83 |
| P7H | 2.12 |
| S12L | 2.27 |
